assay: Solubility; assay type: physicochemical; settings: pH 2.7, aqueous buffer; read-out: Solubility (ug/mL) pH 2.7
Parameter: solubility (µg/mL)

CCCc1nc(C)c2c(=O)[nH]c(-c3cc(S(=O)(=O)N4CCN(CCN5CCOCC5)CC4)ccc3OCC)nn12	115
CCCc1nc(C)c2c(=O)[nH]c(-c3cc(S(=O)(=O)N(C)C(C)(C)C)ccc3OCC)nn12	90.2
CCCc1nn(C)c2c(=O)[nH]c(-c3cc(S(=O)(=O)N4CCN(CCN5CCOCC5)CC4)ccc3OCC)nc12	112
CCCc1nc(C)c2c(=O)[nH]c(-c3cc(S(=O)(=O)N(C)CCN4CCCC4=O)ccc3OCC)nn12	93.3
CCCc1nc(C)c2c(=O)[nH]c(-c3cc(S(=O)(=O)N4CCN(C(=O)CN(C)C)CC4)ccc3OCC)nn12	124

---

assay: Solubility; assay type: physicochemical; conditions: pH 7.4, aqueous buffer; read-out: Solubility (ug/mL) pH 7.4
Parameter: solubility (µg/mL)

Sample answers from the record:
CCCc1nc(C)c2c(=O)[nH]c(-c3cc(S(=O)(=O)N(C)CCN4CCCC4=O)ccc3OCC)nn12 [Compound 20]	90.9
CCCc1nc(C)c2c(=O)[nH]c(-c3cc(S(=O)(=O)N4CCN(CCN5CCOCC5)CC4)ccc3OCC)nn12 [Compound 15]	110

[1] CCCc1nc(C)c2c(=O)[nH]c(-c3cc(S(=O)(=O)N4CCN(C(=O)CN(C)C)CC4)ccc3OCC)nn12 [Compound 1]
[2] CCCc1nn(C)c2c(=O)[nH]c(-c3cc(S(=O)(=O)N4CCN(CCN5CCOCC5)CC4)ccc3OCC)nc12 [Compound 21]
[3] CCCc1nc(C)c2c(=O)[nH]c(-c3cc(S(=O)(=O)N(C)C(C)(C)C)ccc3OCC)nn12 [Compound 3]
Qu. // smallest solubility at index 0, largest at the end Answer format: the labels, in the requested order.
Ans. 3, 2, 1
(3: 15 µg/mL, 2: 26 µg/mL, 1: 111 µg/mL)

---

Examples of compounds with documented GI50 follow.
assay: Chronic Cytoxicity (mouse 3T3); type: cell-based; settings: 3T3 cells

These solved cases illustrate the format of a correct answer.
CCCc1nc(C)c2c(=O)[nH]c(-c3cc(S(=O)(=O)N(C)C(C)(C)C)ccc3OCC)nn12 [Compound 3]	> 50 µM
CCCc1nc(C)c2c(=O)[nH]c(-c3cc(S(=O)(=O)NCCO)ccc3OCC)nn12 [Compound 4]	~50 µM

Turning now to a further compound:
The measured GI50 associated with CCCc1nc(C)c2c(=O)[nH]c(-c3cc(S(=O)(=O)N(C)CCNC)ccc3OCC)nn12 [Compound 2] reads > 75 µM
